system: A549 cells; experiment: Bromodeoxyuridine (BrdU) proliferation assay; format: cell-based, human; settings: Homo sapiens, A549, 48 h, BrdU ELISA 48 hours after addition of compound; tested 0.03-10 uM; cell line not given (A549 method; SW-480 and MDA-MB-231 also used); read-out: Assay Result (IC50μM)
Entries and their IC50 values follow.

givenSmiles	IC50 (µM)
CCNC(=S)NNc1ncnc2cc(-c3cccc(C)c3)sc12	0.113
S=C(NNc1ncnc2cc(-c3cccc(Cl)c3)sc12)NC1CC1	0.146
Cc1ccc(-c2cc3ncnc(NNC(=S)NC4CC4)c3s2)cc1C	0.15

Source listed as patent US7071190B2.
